Hello, the source for this data is ChEMBL document CHEMBL1129371, in case you need it.

assay: Pharmacokinetic parameter Cmax determined after intravenous administration of 50 mg/kg to rat; type: ADME, organism-based; parameters: dose 50 mg/kg, route intravenous; conditions: in vivo
measure.name: Cmax (µg/mL)
Answer format: numeric, µg/mL implied, no suffix.

Task item: Quick one: give measured Cmax for CCC1(N(CCO)C(=O)c2ccccc2CCC(O)Cc2ccc(C)cc2C(=O)N(CCO)C(C)(C)c2ccc(O)cc2)CCCC1 (stereo unspecified)
Reply: 41.3

Task item: Quick one: give measured Cmax for CCC1(N(CCO)C(=O)c2ccccc2CCC(O)Cc2ccc(C)cc2C(=O)N(CCO)C(C)(C)c2ccccc2)CCCC1 (stereo unspecified)
Reply: 88.4

Task item: Quick one: give measured Cmax for Cc1ccc(CC(O)CCc2ccccc2C(=O)N(CCO)C(C)(C)c2ccccc2)c(C(=O)N(CCO)C(C)(C)c2ccccc2)c1 (stereo unspecified)
Reply: 88.9

Task item: Quick one: give measured Cmax for CCC1(N(CCO)C(=O)c2ccccc2CCC(O)Cc2ccc(Cl)cc2C(=O)N(CCO)C(C)(C)c2ccccc2)CCCC1 (stereo unspecified)
Reply: 111

Task item: Quick one: give measured Cmax for CCC1(N(CCO)C(=O)c2ccccc2CCC(O)Cc2ccc(C)cc2C(=O)N(CCC(O)CO)C(C)(C)c2ccccc2)CCCC1 (stereo unspecified)
Reply: 111

Task item: Quick one: give measured Cmax for CCC1(N(CCO)C(=O)c2ccccc2CCC(O)Cc2ccc(C)cc2C(=O)N(CC(CO)CO)C(C)(C)c2ccccc2)CCCC1 (stereo unspecified)
Reply: 52.2
